measurement-notes: amyloid nucleation score (Sup35N fusion, yeast selection) (log enrichment); library NNK1; higher = more nucleation; inactive = no reads after selection;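 also: zero at mode of non-aggregating sequences after 7 days selection at 30°C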
parameter: amyloid nucleation score

substance	measured-number
IMKSFMDATYVSCFWILMPA	1.57
VWIICQHGG	4.09
SMCTCLRMGRLPIQVFSWSG	-1.52
RASTNLRSEIDVNNRGWLRW	1.32
EYGVSLV	0.089
APGDWLLSDASAAVGEMVE	0.778
CENVIEFNENVKG	0.503
LITLREVTYIFNWTFLNYLR	-0.305
MWGFWTFFDGLAYPFVMHKT	0.054
MWFRTAST	6.34
FDLVYACANPTFGINVRTGR	2.67
GRIYLVWVDSTCRRVCKTLV	0.082
ESAFHASVGALRMHTSSRVC	1.09
FNVKSSMRNPGCIPWHRATY	-0.616
AWGRDYEELSSPLGMKALTW	0.381
EKLNFSNLEGFRGFRLKGSR	-0.271
CGMARWSRKSTELAHKQNVD	0.277
KYWLMSLLAVKPSSRDSYGQ	-0.239
FDLWLVYVRLPGSHDLDLRA	0.61
LINFLLVTVCTSWIGISLCV	0.358
QFEFNFTKEDQYYEGFPVDW	-0.827
GHTVVSSWALNFEYGFQLGY	0.05
FGSLRHCFTFNCNPGMGVWV	2.53
FALKIVGVVPVAVGMTIDDW	0.052
GSNDPSVLTAVVLMLLKHRG	2.04
IATGMWLYVSLVTPQHSLVN	0.101
STVIHN	1.23
HRRAFRQVVVTAGPKQASPM	0.001
HYRSTGMMESSRG	0.522
CWFTAVLARPLWNSSVSSVA	-0.369
CILSSHL	2.61
FSALLIPENISD	-1.25
NMGNLFNICETGNLL	0.296
SRFNSWLCCEND	1.76
ISSLESRTTMRVV	0.377
RFAAFIEQGFTTKK	1.87
ATCNSVRARGFTPGHHLAPG	-0.405
DIGLREFNWVTNITTLPQLG	1.33
DLHRRSVCCFENVFVITAYY	2.06
LEGSNSFNLRNLQFALRGTL	0.069
LGDVSRYFCCIQGNNYRM	5.51
YKATRRRQLLSPVIGEDQIG	0.208
SRVRHFVSFFTV	-0.333
RSCLQGFGIFAMAIMD	0.367
FCMTTSVSSNTLV	-0.013
PASSCAVVELGMKVGEGGIP	-0.386
LVMLRCAMTLCSIMLNYTPR	0.89
GLFFNNKYA	0.54
WSLNERQNMLHLHRLTASLG	-0.088
AIVSGRTFDKPNMKRCL	-1.44
GIRPPGKCMGWYLHMKFQSS	-0.391
TIIVDDGWRAYSRLS	0.22
MINTTMRSDRRNNWLG	2.94
PLTFSCSLGKGFTWYFCLNV	-0.196
NNFSSNWWLELWYRYFVYPI	0.666
RILRCNPLLCRNSACTGIGA	0.742
GTSSYMV	-0.01
KRTHSTLHK	0.36
VAITCLKIANGDRGVLQTLC	0.264
LRNIGCKY	1.01
TFVVFFCWLGS	5.12
CRIVKARDGC	-1.23
RSEELYGQDVQEKSAGPRVS	-0.089
TYVSNNPKGNPTLHAYFSF	0.68
SIGRLIPYFNQTPFCIS	-0.338
TFPGSHLFTFLMMEGSLNHG	0.694
KNKGCGGKAEYTLAPIEISM	0.364
YFLLPYADRIHHLSVNCFWM	-0.008
